Field: normalized GFP fluorescence. Provide a value for each of the molecules that follow.
System: Staphylococcus aureus MW2 delta-mecA (mecA-)
Assay: normalized GFP fluorescence (growth of mecA- strain) (fraction of control range); higher = more growth of mecA- strain
Conditions: compound concentration: 150 uM; cefoxitin: subinhibitory; fluorescent label: GFP
One number for each entry.

A selection of reference data follows.
• Cc1c(O)c(=O)ccn1C [Deferiprone] = 0.292
• COC(=O)C1=C(C)NC(C)=C(C(=O)OCCN2CCN(C(c3ccccc3)c3ccccc3)CC2)C1c1cccc([N+](=O)[O-])c1 (stereo not drawn) = 0.002

Let's switch to this molecule now.
# value lookup — system Staphylococcus aureus MW2 delta-mecA (mecA-), readout normalized GFP fluorescence, item CC(C)[N+](C)(CCOC(=O)C1c2ccccc2Oc2ccccc21)C(C)C
0.295
